Reference for the values: patent US8809343B2

- Test system: HIV-1 IIIB strain
- Assay Info: Anti-HIV activity: protection of HIV-infected MT-4 cells from virus-induced cell lesions
- Format: cell-based
- Recorded Conditions: HIV-1 IIIB, MT-4 cells, Table 3
Quantity: SI (Selectivity index, the ratio of CC50/IC50)

Compound	Study System	Recorded Value
Cc1cc(Br)cc(Br)c1Oc1nc(Nc2ccc(C#N)cc2)nc2ccccc12	HIV-1 IIIB strain	8917
COc1ccc(Oc2nc(Nc3ccc(C#N)cc3)nc3ccccc23)cc1	HIV-1 IIIB strain	>1810
O=C1Nc2ccc(Cl)cc2[C@@](C#CC2CC2)(C(F)(F)F)O1 [EFV, efavirenz, reference compound]	HIV-1 IIIB strain	>2174
Cc1ccc(Oc2nc(Nc3ccc(C#N)cc3)nc3ccccc23)cc1	HIV-1 IIIB strain	8091
COc1ccccc1Oc1nc(Nc2ccc(C#N)cc2)nc2ccccc12	HIV-1 IIIB strain	>6186
Cc1ccccc1Oc1nc(Nc2ccc(C#N)cc2)nc2ccccc12	HIV-1 IIIB strain	1148
N#Cc1ccc(Nc2nc(Oc3ccc(Br)cc3)c3ccccc3n2)cc1	HIV-1 IIIB strain	894
Cc1cccc(Oc2nc(Nc3ccc(C#N)cc3)nc3ccccc23)c1	HIV-1 IIIB strain	>563

Now take the following compound into account.
Exam item: Could you share which SI (Selectivity index, the ratio of CC50/IC50) value was measured for `N#Cc1ccc(Nc2nc(Oc3ccccc3)c3ccccc3n2)cc1` ?
Marked response: >411

----------
- Assay Info: Cell toxicity in uninfected MT-4 cells (MTT method)
- Assay type: cell-based
- Recorded Conditions: human, uninfected MT-4 cells, Table 1
Quantity: CC50 at 7 days (µM)
// units = µM; emit number, no label

Compound	CC50 at 7 days (µM)
COc1cc(Oc2cccc3cccnc23)nc(Nc2ccc(C#N)cc2)n1 [Compound 4]	42.2
N#Cc1ccc(Nc2nc(Cl)cc(Oc3cccc4cccnc34)n2)cc1 [Compound 2]	20.1
CC(C)Nc1cccnc1N1CCN(C(=O)c2cc3cc(NS(C)(=O)=O)ccc3[nH]2)CC1 [DLV, Delavirdine, reference compound]	0.86
N#Cc1ccc(Nc2nccc(Oc3cccc4cccnc34)n2)cc1 [Compound 1]	38.8

Lab note: next compound to report on.
Exam item: Return reported CC50 at 7 days; argument: CNc1cc(Oc2cccc3cccnc23)nc(Nc2ccc(C#N)cc2)n1 [Compound 3]
Marked response: 54.2

----------
- Test system: HIV-1 IIIB strain
- Assay Info: Anti-HIV activity: protection of HIV-infected MT-4 cells from virus-induced cell lesions
- Format: cell-based
- Recorded Conditions: MT-4 cells, Table 3; read-out: EC50 HIV-1(IIIB)
Entries and their log10(EC50) values follow.
In plain terms, each number is the log10 of measured EC50 in nM.

Exam item: What log10(EC50) value was documented for this compound, `CCOc1cc(C#N)cc(OCC)c1Oc1nc(Nc2ccc(C#N)cc2)nc2ccccc12` ?
Marked response: 0.46

Exam item: Item: `Cc1cc(C#N)ccc1Oc1nc(Nc2ccc(C#N)cc2)nc2ccccc12`
Marked response: 1.45

Exam item: Input `CCOc1cc(C#N)cc(OC)c1Oc1nc(Nc2ccc(C#N)cc2)nc2ccccc12`
Marked response: 0.41

Exam item: Further, for `N#Cc1ccc(Nc2nc(Oc3ccc(Cl)cc3)c3ccccc3n2)cc1` ?
Marked response: 2.22

Exam item: What would you report for `CCCOc1cc(C#N)cc(OCC)c1Oc1nc(Nc2ccc(C#N)cc2)nc2ccccc12` ?
Marked response: 0.51

Exam item: And Cc1cn([C@H]2C[C@H](N=[N+]=[N-])[C@@H](CO)O2)c(=O)[nH]c1=O [DDN/AZT, reference compound] ?
Marked response: 0.71

Exam item: Entry to check: `Cc1cc(C)c(Oc2nc(Nc3ccc(C#N)cc3)nc3ccccc23)c(C)c1`
Marked response: 1.36

Exam item: And `Cc1cc(C#N)cc(C)c1Oc1nc(Nc2ccc(C#N)cc2)nc2ccccc12` ?
Marked response: 0.56

Exam item: Next record, please: `Cc1cc(C)c(Oc2nc(Nc3ccc(C#N)cc3)nc3ccc(Cl)cc23)c(C)c1`
Marked response: 0.26

----------
- Test system: HIV-1 IIIB strain
- Assay Info: Anti-HIV activity: protection of HIV-infected MT-4 cells from virus-induced cell lesions
- Format: cell-based
- Recorded Conditions: MT-4 cells, Table 1; read-out: EC50 HIV-1(IIIB)
The reader will find reported pEC50 values listed item by item below.
Scale: negative log10 of molar concentration, which is what pEC50 denotes.

CNc1nc(Nc2ccc(C#N)cc2)nc(Oc2ccc3cc(C#N)ccc3c2)c1C(C)C 8.12
Cc1c(Cl)nc(Nc2ccc(C#N)cc2)nc1Oc1cccc2cccnc12 7.59
N#Cc1ccc(Nc2nccc(Oc3ccc4cc(C#N)ccc4c3Br)n2)cc1 8.80

Exam item: Fill blank: measured pEC50 of the compound `CNc1nc(Nc2ccc(C#N)cc2)nc(Oc2ccc3ccccc3c2Br)c1C` is ____.
Marked response: 7.81

Exam item: # repeat for `CNc1nc(Nc2ccc(C#N)cc2)nc(Oc2cccc3cccnc23)c1C`
Marked response: 7.80

Exam item: Item: `N#Cc1ccc(Nc2nccc(Oc3ccc4cc(Br)ccc4c3Br)n2)cc1`
Marked response: 8.34

----------
- Test system: MT-4 cells
- Assay Info: Cell toxicity in uninfected MT-4 cells (MTT method)
- Type: cell-based
- Recorded Conditions: Table 3
Quantity: CC50 (µM)
Just the number in µM, nothing appended.

Exam item: Field: CC50 (MT-4 cells). Entry: `N#Cc1ccc(Nc2nc(Oc3ccc(F)cc3)c3ccccc3n2)cc1`
Marked response: 310

Exam item: Also, `N#Cc1ccc(Nc2nc(Oc3ccccc3Cl)c3ccccc3n2)cc1` please.
Marked response: 343

Exam item: Also, `N#Cc1ccc(Nc2nc(Oc3c(Br)cc(Br)cc3Br)c3ccccc3n2)cc1` please.
Marked response: 71

Exam item: What do you have for `N#Cc1ccc(Nc2nc(Sc3ccccc3)c3ccccc3n2)cc1` ?
Marked response: 494

Exam item: And then `N#Cc1ccc(Nc2nc(Oc3c(Cl)cc(Cl)cc3Cl)c3ccccc3n2)cc1` , what is it?
Marked response: 244

----------
- System: MT-4 cells
- Assay Info: Cell toxicity in uninfected MT-4 cells (MTT method)
- Type: cell-based
- Recorded Conditions: Table 3
Some compounds, each annotated with its measured CC50.

Compound	Study System	Recorded Value
Cc1cc(C)c(Oc2nc(Nc3ccc(C#N)cc3)nc3ccccc23)c(C)c1 [Compound 36]	MT-4 cells	> 34.1 µM
Cc1cc(C)c(Oc2nc(Nc3ccc(C#N)cc3)nc3ccc(Cl)cc23)c(C)c1 [Compound 54]	MT-4 cells	147 µM
Cc1cn([C@H]2C[C@H](N=[N+]=[N-])[C@@H](CO)O2)c(=O)[nH]c1=O [DDN/AZT, reference compound]	MT-4 cells	> 93.5 µM

Exam item: Record request: CC50 value, item CCOc1cc(C#N)cc(OCC)c1Oc1nc(Nc2ccc(C#N)cc2)nc2ccccc12 [Compound 46]
Marked response: > 99.3 µM

----------
- System: HIV-1 IIIB strain
- Assay Info: Anti-HIV activity: protection of HIV-infected MT-4 cells from virus-induced cell lesions
- Assay type: cell-based
- Recorded Conditions: Human immunodeficiency virus 1, IIIB, MT4, read-out: EC50 WT(IIIB)
Mark y only when EC50 stays strictly below 0.9 nM. Values equal to the cut-off are n.

Answered examples (3):
COc1c(Oc2ccnc(Nc3ccc(C#N)cc3)n2)ccc2cc(C#N)ccc12 n
COc1cc2cc(C#N)ccc2c(OC)c1Oc1ccnc(Nc2ccc(C#N)cc2)n1 y
COc1cc2cc(C#N)ccc2c(Cl)c1Oc1ccnc(Nc2ccc(C#N)cc2)n1 y

Exam item: Quick check: EC50 of `N#Cc1ccc(Nc2nccc(Oc3ccc4cc(C#N)ccc4c3Cl)n2)cc1` under 0.9 nM?
Marked response: n

----------
- System: MT-4 cells
- Assay Info: Cell toxicity in uninfected MT-4 cells (MTT method)
- Format: cell-based
- Recorded Conditions: Table 3
Quantity: CC50

Known results for compounds:
COc1cc(C#N)cc(Cl)c1Oc1nc(Nc2ccc(C#N)cc2)nc2ccccc12 > 173 µM
N#Cc1ccc(Nc2nc(Oc3ccc(Cl)cc3)c3ccccc3n2)cc1 > 396 µM
N#Cc1ccc(Nc2nc(Oc3ccc(Cl)cc3Cl)c3ccccc3n2)cc1 114 µM
Cc1cc(C#N)cc(C)c1Oc1nc(Nc2ccc(C#N)cc2)nc2ccccc12 > 172 µM

Exam item: Quick check: CC50 on MT-4 cells, item `Cc1cc(C#N)ccc1Oc1nc(Nc2ccc(C#N)cc2)nc2ccccc12` ?
Marked response: > 333 µM

Exam item: Record: `CCOc1cc(C#N)cc(Cl)c1Oc1nc(Nc2ccc(C#N)cc2)nc2ccccc12`
Marked response: > 594 µM

----------
The compounds listed here are annotated with their log10(EC50).
- Test system: HIV-1 IIIB strain
- Assay Info: Anti-HIV activity: protection of HIV-infected MT-4 cells from virus-induced cell lesions
- Assay type: cell-based
- Recorded Conditions: MT-4 cells, Table 3; read-out: EC50 HIV-1(IIIB)
Remember, log10 of EC50, in nM.

// below: answered compounds
COc1cc(C#N)cc(Cl)c1Oc1nc(Nc2ccc(C#N)cc2)nc2ccccc12 0.75
N#Cc1ccc(Nc2nc(Oc3ccc(Cl)cc3Cl)c3ccccc3n2)cc1 1.45
N#Cc1ccc(Nc2nc(Oc3ccccc3Cl)c3ccccc3n2)cc1 1.76

Exam item: Fill in the blank: the reported log10(EC50) of `N#Cc1ccc(Nc2nc(Oc3c(Br)cc(Br)cc3Br)c3ccccc3n2)cc1` is ____.
Marked response: 1.36
